system: HL-60; assay: Anticancer activity was evaluated for the compound against ara-C resistant promyelocytic leukemia cell line that is Cyd-kinase deficient (HL-60-HGPRT-/dCK-); format: functional; conditions: Homo sapiens, read-out: ID50 (the source's name)
pIC50: −log10 of the molar value.
quantity name: pIC50

In [3]: df
Out[3]:
                                item_smiles   val
0  Nc1nc(=O)n([C@@H]2O[C@H](CO)[C@@H](O)[C@@H]2O)cc1[Se]c1ccccc1  3.43
